target: human GluN1/GluN2B NMDA receptors (Homo sapiens, UniProt Q05586+Q13224); assay: Cell-based calcium flux (FLIPR) assay on cloned human GluN1/GluN2B ion channels expressed in mammalian cells; settings: standard assay; glutamate ~EC40, 10 μM glycine; stable Tet-On cell line
Sequence (Q13224 27-1484, other chains not shown): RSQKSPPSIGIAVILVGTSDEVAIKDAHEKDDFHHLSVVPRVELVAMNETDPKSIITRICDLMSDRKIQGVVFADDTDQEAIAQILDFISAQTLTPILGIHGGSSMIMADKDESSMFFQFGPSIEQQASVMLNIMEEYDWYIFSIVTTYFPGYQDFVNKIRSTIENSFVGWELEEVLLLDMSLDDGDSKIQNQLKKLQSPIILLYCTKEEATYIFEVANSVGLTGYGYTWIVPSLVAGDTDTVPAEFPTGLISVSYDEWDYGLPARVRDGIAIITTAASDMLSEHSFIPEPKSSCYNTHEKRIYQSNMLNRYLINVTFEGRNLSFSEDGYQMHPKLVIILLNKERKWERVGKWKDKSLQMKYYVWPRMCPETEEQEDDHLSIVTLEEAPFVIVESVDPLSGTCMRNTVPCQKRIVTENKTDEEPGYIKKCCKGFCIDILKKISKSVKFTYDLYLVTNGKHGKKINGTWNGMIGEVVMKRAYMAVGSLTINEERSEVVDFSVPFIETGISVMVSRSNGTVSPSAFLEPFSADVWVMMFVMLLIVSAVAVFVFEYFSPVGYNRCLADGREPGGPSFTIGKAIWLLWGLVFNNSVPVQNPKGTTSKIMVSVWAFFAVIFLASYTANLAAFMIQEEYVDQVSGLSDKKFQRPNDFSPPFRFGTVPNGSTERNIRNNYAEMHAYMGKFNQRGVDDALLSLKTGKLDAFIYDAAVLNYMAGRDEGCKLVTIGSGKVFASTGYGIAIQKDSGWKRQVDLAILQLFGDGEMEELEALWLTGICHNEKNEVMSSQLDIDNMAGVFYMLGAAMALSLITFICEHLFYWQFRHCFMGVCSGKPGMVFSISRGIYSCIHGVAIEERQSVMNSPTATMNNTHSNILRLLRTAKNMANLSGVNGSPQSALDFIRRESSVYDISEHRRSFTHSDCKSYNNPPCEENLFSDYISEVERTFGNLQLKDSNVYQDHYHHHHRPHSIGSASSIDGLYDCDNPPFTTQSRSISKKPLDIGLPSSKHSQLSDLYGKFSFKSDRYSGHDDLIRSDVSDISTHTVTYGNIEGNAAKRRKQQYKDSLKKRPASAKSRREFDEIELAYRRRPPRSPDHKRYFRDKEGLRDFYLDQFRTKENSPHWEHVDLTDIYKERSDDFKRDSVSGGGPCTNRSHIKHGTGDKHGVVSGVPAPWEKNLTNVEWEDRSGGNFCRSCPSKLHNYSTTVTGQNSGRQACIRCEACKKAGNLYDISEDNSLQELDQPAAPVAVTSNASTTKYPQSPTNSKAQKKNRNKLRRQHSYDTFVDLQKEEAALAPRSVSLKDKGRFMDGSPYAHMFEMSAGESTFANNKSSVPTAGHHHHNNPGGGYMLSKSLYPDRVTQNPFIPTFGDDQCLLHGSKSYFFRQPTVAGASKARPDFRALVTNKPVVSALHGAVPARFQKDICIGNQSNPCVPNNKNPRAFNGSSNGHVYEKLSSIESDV
quantity: IC50 (nM)
Only the number, expressed in nM, is required.

Illustrative cases are given below, each with its answer.
molecule: CC(C)C1CN(Cc2cncc(-c3ccc(F)c(C(F)F)c3)c2)C(=O)O1 (single isomer, unassigned) [Example 37]
IC50, nM: 50

molecule: O=C1OCCN1Cc1cc(-c2ccc(F)c(OC(F)F)c2)cnc1C(F)F
IC50, nM: 39

Consider the record given below.
Problem: Find the recorded IC50 belonging to Cc1ncc(-c2ccc(F)c(OC(F)F)c2)cc1CN1CC(C)OC1=O (racemic) [Example 80] and report it.
Solution: 22
